Hi! I'm sharing some pKi results obtained with Carbonic anhydrase 6 (Homo sapiens, UniProt P23280).
Sequence (P23280 whole entry): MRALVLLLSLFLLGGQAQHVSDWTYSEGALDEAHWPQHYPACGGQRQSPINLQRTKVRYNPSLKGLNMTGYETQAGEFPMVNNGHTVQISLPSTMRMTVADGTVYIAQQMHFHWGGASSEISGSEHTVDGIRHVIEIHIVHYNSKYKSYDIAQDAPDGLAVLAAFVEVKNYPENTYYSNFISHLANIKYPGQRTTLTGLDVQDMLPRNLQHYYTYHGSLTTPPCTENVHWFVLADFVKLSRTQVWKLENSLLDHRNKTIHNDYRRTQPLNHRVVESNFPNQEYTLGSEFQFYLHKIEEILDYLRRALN
pKi: −log10 of the molar value.
measured-endpoint: pKi

[[record]]
compound = "CC(CCc1ccc(O)cc1)NCCc1ccc(O)c(O)c1 (configuration not stated)"
measured_endpoint = "pKi"
operator_symbol = "="
experimental_value = 5.02

[[record]]
compound = "O=C(O)/C=C/c1ccccc1O"
measured_endpoint = "pKi"
operator_symbol = "<"
experimental_value = 3.00


###

pKi: −log10 of the molar value.
Record set of pKi for target or system Carbonic anhydrase 1 (Homo sapiens, UniProt P00915).
measured-endpoint: pKi

[[record]]
compound = "Oc1cc(O)c2c(c1)O[C@H](c1ccc(O)c(O)c1)[C@@H](O)C2"
target_under_test = "Carbonic anhydrase 1 (Homo sapiens, UniProt P00915)"
experimental_value = 5.62

[[record]]
compound = "CC(CCc1ccc(O)cc1)NCCc1ccc(O)c(O)c1 (centres undefined)"
target_under_test = "Carbonic anhydrase 1 (Homo sapiens, UniProt P00915)"
experimental_value = 5.72

[[record]]
compound = "O=C(O)/C=C/c1ccccc1O"
target_under_test = "Carbonic anhydrase 1 (Homo sapiens, UniProt P00915)"
experimental_value = 5.51

[[record]]
compound = "Oc1ccc(/C=C/c2cc(O)cc(O)c2)cc1"
target_under_test = "Carbonic anhydrase 1 (Homo sapiens, UniProt P00915)"
experimental_value = 5.66


Values compiled from ChEMBL document CHEMBL1221287.
